- TARGET_OR_SYSTEM: Aminopeptidase N (Sus scrofa)
- Sequence (P15145 whole entry): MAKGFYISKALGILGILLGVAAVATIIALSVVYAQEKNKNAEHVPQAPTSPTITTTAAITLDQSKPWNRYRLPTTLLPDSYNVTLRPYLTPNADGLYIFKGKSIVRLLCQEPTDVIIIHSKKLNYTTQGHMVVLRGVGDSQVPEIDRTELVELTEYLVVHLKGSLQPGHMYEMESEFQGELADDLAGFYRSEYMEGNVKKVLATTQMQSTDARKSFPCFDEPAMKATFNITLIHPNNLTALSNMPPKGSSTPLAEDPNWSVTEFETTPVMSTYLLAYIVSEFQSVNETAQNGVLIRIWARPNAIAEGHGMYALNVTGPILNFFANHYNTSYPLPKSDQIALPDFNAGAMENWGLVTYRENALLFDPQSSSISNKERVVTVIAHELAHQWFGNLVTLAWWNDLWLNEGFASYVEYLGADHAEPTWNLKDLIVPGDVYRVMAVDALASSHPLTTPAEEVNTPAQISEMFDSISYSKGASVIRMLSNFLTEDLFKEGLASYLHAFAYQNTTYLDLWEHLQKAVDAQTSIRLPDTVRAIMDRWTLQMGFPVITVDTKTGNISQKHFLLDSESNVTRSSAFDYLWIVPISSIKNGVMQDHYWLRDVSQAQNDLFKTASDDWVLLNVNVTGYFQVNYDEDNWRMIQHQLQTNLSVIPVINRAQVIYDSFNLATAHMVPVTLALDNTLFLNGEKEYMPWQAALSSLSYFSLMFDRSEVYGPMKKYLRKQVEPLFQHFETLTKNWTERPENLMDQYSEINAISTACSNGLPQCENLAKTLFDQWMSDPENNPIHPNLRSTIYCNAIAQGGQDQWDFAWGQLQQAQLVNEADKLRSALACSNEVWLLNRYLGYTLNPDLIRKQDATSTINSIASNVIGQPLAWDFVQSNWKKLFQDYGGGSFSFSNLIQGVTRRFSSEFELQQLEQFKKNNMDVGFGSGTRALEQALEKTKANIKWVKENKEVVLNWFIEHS
Across several studies, compounds have been characterized by their pIC50 on Aminopeptidase N (Sus scrofa); a selection follows.
Note on pIC50: it is the negative log10 of concentration, concentration in mol/L.

CC(C)C[C@H](NC(=O)[C@@H](O)[C@H](N)Cc1ccccc1)C(=O)NCCCCCC(=O)OCn1cc(F)c(=O)[nH]c1=O	5.74
O=C(NO)C(Cc1ccccc1)C(=O)NCc1ccncc1 (configuration not stated)	5.34
C[C@@H](NC(=O)/C=C/c1ccc(O)cc1)C(=O)Nc1nnc(-c2ccc(F)cc2)s1	3.94

Q. Let me know recorded pIC50 for COC(=O)[C@H](C)NC(=O)CN1C(=O)CC[C@H](NC(=O)c2cc(OC)c(OC)c(OC)c2)C1=O , thanks.
A. 4.72

Q. Output pIC50 of CSCC[C@H](NC(=O)N[C@@H](Cc1ccccc1)C(=O)NC[C@H](N)Cc1ccccc1)C(=O)O
A. 5.06

Q. Specify pIC50 for CCCNNC(=O)c1ccc(CNC(=O)[C@H]2CCCN2C(=O)[C@H](CC(C)C)NC(=O)[C@@H](O)[C@H](N)Cc2ccccc2)cc1 and stop.
A. 5.57
